Biological target: human ether-à-go-go-related gene (hERG) potassium channel (human, UniProt Q12809)
Sequence (Q12809 whole entry, looked up): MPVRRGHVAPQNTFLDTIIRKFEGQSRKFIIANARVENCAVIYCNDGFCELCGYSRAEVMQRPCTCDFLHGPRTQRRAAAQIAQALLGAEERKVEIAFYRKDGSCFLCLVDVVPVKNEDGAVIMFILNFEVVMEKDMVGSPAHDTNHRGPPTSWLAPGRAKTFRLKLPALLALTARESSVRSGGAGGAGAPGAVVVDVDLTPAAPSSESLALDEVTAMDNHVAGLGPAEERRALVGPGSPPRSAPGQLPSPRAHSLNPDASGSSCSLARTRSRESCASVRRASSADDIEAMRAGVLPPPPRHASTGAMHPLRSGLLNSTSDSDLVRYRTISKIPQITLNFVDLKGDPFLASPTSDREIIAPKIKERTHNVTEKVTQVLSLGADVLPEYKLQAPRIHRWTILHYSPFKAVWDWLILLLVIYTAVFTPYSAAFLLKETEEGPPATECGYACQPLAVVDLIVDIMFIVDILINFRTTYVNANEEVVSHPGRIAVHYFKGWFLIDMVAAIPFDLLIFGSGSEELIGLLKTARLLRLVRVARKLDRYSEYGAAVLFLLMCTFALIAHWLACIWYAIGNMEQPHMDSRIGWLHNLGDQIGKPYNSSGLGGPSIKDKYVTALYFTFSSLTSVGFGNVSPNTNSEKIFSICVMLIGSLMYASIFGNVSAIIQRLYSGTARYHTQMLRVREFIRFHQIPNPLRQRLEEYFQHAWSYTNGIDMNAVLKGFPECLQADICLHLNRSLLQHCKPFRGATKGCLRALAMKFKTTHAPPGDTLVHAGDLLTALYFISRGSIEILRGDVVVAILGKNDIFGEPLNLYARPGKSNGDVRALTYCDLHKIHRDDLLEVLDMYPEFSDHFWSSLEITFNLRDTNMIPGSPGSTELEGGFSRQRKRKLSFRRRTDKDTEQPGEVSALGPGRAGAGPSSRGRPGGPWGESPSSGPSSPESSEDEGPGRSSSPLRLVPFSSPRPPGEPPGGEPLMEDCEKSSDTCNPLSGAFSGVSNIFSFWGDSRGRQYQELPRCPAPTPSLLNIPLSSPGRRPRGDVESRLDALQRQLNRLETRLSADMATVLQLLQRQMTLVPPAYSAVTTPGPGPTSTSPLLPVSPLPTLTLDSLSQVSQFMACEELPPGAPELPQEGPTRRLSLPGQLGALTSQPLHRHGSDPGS
Experiment: primary screen, population patch clamp on CHO cells stably expressing hERG; higher = less effect of the substance
Among all 310,000 compounds or so, about 2,200 (0.71%) showed an effect of 50% or more. The effect is printed as a negative number. Only a selection was taken, and strong results are over-represented in it overall.
# hERG current change (%, negative = inhibition) at 1uM values compiled below
Give just the numeric value; % need not be written.

// below: answered compounds
CN(C)c1ccc(NC(=O)CN2CCN(CC(=O)Nc3ccc(F)cc3)CC2)cc1 : -61.1
CN(C)c1ccc(NC(=O)CN2CCC(C(=O)c3ccc(F)cc3)CC2)cc1 : -4.93
Cc1ccc(-n2nnnc2SCc2ccc(C(=O)O)cc2)cc1C : -80.9

Query :: Please give the measured hERG current change (%, negative = inhibition) at 1uM for this compound: CCCN1C(=O)c2ccc(C(=O)Nc3ccccc3C(=O)O)cc2C1=O
Result :: 18

Query :: Please give the measured hERG current change (%, negative = inhibition) at 1uM for this compound: O=C(O)c1ccc(CSc2nnnn2-c2ccc(F)cc2)cc1
Result :: 6.99

Query :: Please give the measured hERG current change (%, negative = inhibition) at 1uM for this compound: COc1cccc(N2CCN(CC(=O)Nc3ccc(SC(F)F)cc3)CC2)c1
Result :: -27.7

Query :: Please give the measured hERG current change (%, negative = inhibition) at 1uM for this compound: COc1ccc(C(=O)/C=C/c2cn(CN3CCN(C)CC3)c3ccccc23)cc1
Result :: -3.29

Query :: Please give the measured hERG current change (%, negative = inhibition) at 1uM for this compound: CN(C)c1ccc(NC(=O)CN2CCN(c3ccc(F)cc3)CC2)cc1
Result :: -3.53

Query :: Please give the measured hERG current change (%, negative = inhibition) at 1uM for this compound: Cc1cc(N2C(=O)C(O)=C(C(=O)c3cc4ccccc4o3)C2c2ccc(Cl)cc2)no1 (stereo not drawn)
Result :: 1.55

Query :: Please give the measured hERG current change (%, negative = inhibition) at 1uM for this compound: COc1ccc(C(=O)Nc2ccc(C(=O)N3CCOCC3)cc2)cc1OC
Result :: 11.3

Query :: Please give the measured hERG current change (%, negative = inhibition) at 1uM for this compound: COCCN(CCOC)S(=O)(=O)c1ccc(C(=O)NC2CCN(Cc3ccccc3)CC2)cc1.Cl
Result :: -1.24

Query :: Please give the measured hERG current change (%, negative = inhibition) at 1uM for this compound: CCN(CC)c1ccc(NC(=O)CN2CCN(CC(=O)Nc3ccccc3F)CC2)cc1
Result :: -13

* * *

Target: human ether-à-go-go-related gene (hERG) potassium channel (human, UniProt Q12809)
Assay: primary screen, population patch clamp on CHO cells stably expressing hERG; higher = less effect of the substance
Hit rate of the full screen: of about 310,000 compounds, about 2,200 (0.71%) showed an effect of 50% or more. The effect is printed as a negative number. Shown is part of a subset that was picked to be rich in strong results.
# hERG current change (%, negative = inhibition) at 1uM values compiled below
Give just the numeric value; % need not be written.

// below: answered molecules
O=C(c1ccc2c(c1)OCO2)C1CCCN(Cc2ccccn2)C1 (stereo not drawn) : -13
CCOC(=O)Cc1csc(NC(=O)c2ccc(OC)c(OC)c2)n1.Cl : -6.29
COc1ccc(-c2[nH]ncc2CN2CCC(OCc3ccccn3)CC2)c(F)c1 : 2.13
O=C(c1ccc2c(c1)OCO2)C1CCCN(Cc2cn[nH]c2-c2cccc(F)c2)C1 (stereo not drawn) : -42.7
CCC(CC)C(=O)c1c[nH]c(C(=O)NCc2ccncc2)c1 : 10
COc1ccccc1C(=O)C1CCCN(Cc2ccc(Oc3ncccn3)cc2)C1 (stereo not drawn) : -0.388
O=C(c1ccc2c(c1)OCO2)C1CCCN(Cc2cn[nH]c2-c2ccccc2)C1 (stereo not drawn) : -67.3
COc1ccc(-c2[nH]ncc2CN2CCC(N3CCSCC3)CC2)cc1F : 3.77
COc1ccc(-c2[nH]ncc2CN2CCC(C(=O)c3ccc(F)cc3)CC2)cc1 : -70.5
CCOc1ccc(CN2CCCC(C(=O)c3ccccc3OC)C2)cc1 (stereo not drawn) : -74.1

Query :: Please give the measured hERG current change (%, negative = inhibition) at 1uM for this molecule: COc1ccccc1-c1nnc(NC(=O)c2ccc(S(=O)(=O)N(C)Cc3ccccc3)cc2)o1
Result :: 4.43

Query :: Please give the measured hERG current change (%, negative = inhibition) at 1uM for this molecule: COc1ccc(-c2[nH]ncc2CN2CCC(OCc3ccccc3)CC2)c(F)c1
Result :: -64.5

* * *

Biological target: human ether-à-go-go-related gene (hERG) potassium channel (human)
Experiment: primary screen, population patch clamp on CHO cells stably expressing hERG; higher = less effect of the substance
Screen size: about 310,000 compounds; about 2,200 (0.71%) showed an effect of 50% or more. The effect is printed as a negative number. This is one part of a sample in which strong results are shown more often than they occur.
outcomeMeasure: hERG current change (%, negative = inhibition) at 1uM (%)
Give just the numeric value; % need not be written.

Cc1cc2c(cc1C)C(c1ccsc1)CC(=O)N2 (stereo not shown) : 9.06
CCOc1ccc(OCC(=O)Nc2ccc(OC)cc2[N+](=O)[O-])cc1 : 8.89
CCOC(=O)C1(Cc2ccc(Cl)cc2)CCN(Cc2nccn2CC)CC1 : -57
O=C(CCn1c(=O)[nH]c2ccccc2c1=O)NCCCN1CCN(c2cccc(Cl)c2)CC1 : -30
C=CCn1c(SCC(=O)NC(=O)NCC(C)C)nnc1C1CCCCC1 : 13.9

# next compound below
Query :: Lab request: please report hERG current change (%, negative = inhibition) at 1uM under test system human ether-à-go-go-related gene (hERG) potassium channel (human) for COc1ccccc1CN1CCC(n2nccc2NC(=O)CCCc2ccccc2)CC1
Result :: -42.7

* * *

# hERG current change (%, negative = inhibition) at 1uM values compiled below
Biological target: human ether-à-go-go-related gene (hERG) potassium channel (human, UniProt Q12809)
Assay: primary screen, population patch clamp on CHO cells stably expressing hERG; higher = less effect of the substance
Hit rate of the full screen: of about 310,000 compounds, about 2,200 (0.71%) showed an effect of 50% or more. The effect is printed as a negative number. For the sample, strong results were picked, then their nearest neighbours and some compounds at random.
Give just the numeric value; % need not be written.

// below: answered molecules
O=C(O)C(=O)O.O=[N+]([O-])c1ccc(S(=O)(=O)N2CCN(Cc3ccco3)CC2)cc1 : 18.9
O=S(=O)(c1ccc(Cl)cc1)N1CCN(C2CCCCCC2)CC1 : 1.61
c1ccc(-n2c(-c3ccco3)nnc2-c2ccco2)cc1 : 5.9

# next molecule below
Query :: Please give the measured hERG current change (%, negative = inhibition) at 1uM for this molecule: Cc1ccc([N+](=O)[O-])cc1S(=O)(=O)Nc1ccc(O)c(Sc2ncn[nH]2)c1
Result :: 14.7

* * *

Target: human ether-à-go-go-related gene (hERG) potassium channel (human, UniProt Q12809)
Assay: primary screen, population patch clamp on CHO cells stably expressing hERG; higher = less effect of the substance
About 2,200 (0.71%) of roughly 310,000 compounds showed an effect of 50% or more. The effect is printed as a negative number. The sample holds strong results, similar compounds and a random draw of the others, so the mix is not that of the screen.
outcomeMeasure: hERG current change (%, negative = inhibition) at 1uM (%)
Give just the numeric value; % need not be written.

O=C(Nc1ccnn1C1CCN(Cc2cccc(O)c2)CC1)C1CCCC1 : -14.2
COc1cc(C(CCN2CCCC2)c2c(OC)cc(OC)c3c(-c4ccccc4)cc(=O)oc23)cc(OC)c1OC (stereo not shown) : -10.9
O=C(Nc1ccnn1C1CCN(C/C=C/c2ccccc2)CC1)C1CCCC1 : -78.4
COc1ccc(C(CCN2CCOCC2)c2c(OC)cc(OC)c3c(C)cc(=O)oc23)cc1 (stereo not shown) : -32.6
Cc1ccc(-n2ccnc(SCC(=O)NC3CCCCC3)c2=O)cc1F : 14.5
COc1ccc(OCCOC(=O)c2[nH]c(C)c(C(C)=O)c2C)cc1 : 8.51

Query :: Please give the measured hERG current change (%, negative = inhibition) at 1uM for this compound: COc1cc(C(CCN2CCCC2)c2c(OC)cc(OC)c3ccc(=O)oc23)cc(OC)c1OC (stereo not shown)
Result :: -26.2

* * *

Biological target: human ether-à-go-go-related gene (hERG) potassium channel (human, UniProt Q12809)
Assay: primary screen, population patch clamp on CHO cells stably expressing hERG; higher = less effect of the substance
Out of some 310,000 compounds screened, about 2,200 (0.71%) showed an effect of 50% or more. The effect is printed as a negative number. The list comes from a sample in which strong results are over-represented; it also holds close analogues and randomly drawn compounds.
outcomeMeasure: hERG current change (%, negative = inhibition) at 1uM (%)
Give just the numeric value; % need not be written.

Query :: Please give the measured hERG current change (%, negative = inhibition) at 1uM for this compound: CCOc1ccccc1CN1CCN(Cc2nc3c(s2)CCCC3)CC1CCO (stereo not drawn)
Result :: -26.6

Query :: Please give the measured hERG current change (%, negative = inhibition) at 1uM for this compound: COc1ccc(S(=O)(=O)NCCC(C)C)cc1C
Result :: 4.62

Query :: Please give the measured hERG current change (%, negative = inhibition) at 1uM for this compound: CCOc1ccccc1CN1CCN(Cc2cccc3c2OCO3)CC1CCO (stereo not drawn)
Result :: -2.66
